Target: T1, human Trop-2-His protein (human, UniProt P09758 27-274)
T1 construct: extracellular domain; Assay paragraphs say only 'Trop-2-His'; also called hTrop-2; Kactus Cat #TRP-HM121; not shown: His tag
T1 sequence (looked up): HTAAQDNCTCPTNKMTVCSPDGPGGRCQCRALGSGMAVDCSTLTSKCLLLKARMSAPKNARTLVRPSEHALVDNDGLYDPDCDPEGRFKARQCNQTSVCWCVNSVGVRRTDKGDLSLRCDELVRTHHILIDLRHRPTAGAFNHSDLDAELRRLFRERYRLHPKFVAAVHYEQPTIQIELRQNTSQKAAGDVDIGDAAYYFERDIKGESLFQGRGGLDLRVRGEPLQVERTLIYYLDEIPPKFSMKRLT
Experiment: BLI (Gator Prime), LEM supernatant Ab on HFC probe
Reported Property: kon (M⁻¹ s⁻¹)
Supply the numeric figure in M⁻¹ s⁻¹, leaving out any unit text.

Ask: Any idea what its kon is? The binder is 1D10 (antibody, V domains shown, Rabbit-derived clone; LEM construct: VH + rabbit IgG CH1 + human IgG1 CH2-CH3) VH: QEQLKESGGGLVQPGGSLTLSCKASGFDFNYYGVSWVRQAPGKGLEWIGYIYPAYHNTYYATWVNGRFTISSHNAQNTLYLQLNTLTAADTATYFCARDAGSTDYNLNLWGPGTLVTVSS VL: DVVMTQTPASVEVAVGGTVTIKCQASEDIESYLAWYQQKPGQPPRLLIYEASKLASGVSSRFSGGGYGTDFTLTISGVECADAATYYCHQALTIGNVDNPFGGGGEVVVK
Reply: 518000

Ask: Please report the recorded kon for 10F12 (antibody, V domains shown, Rabbit-derived clone; LEM construct: VH + rabbit IgG CH1 + human IgG1 CH2-CH3) VH: QSLEESGGDLVQPGASLTLTCRASGFDLNNYSMLWVRQAPGKGLEWIGCIYISGGTTYFASWATGRFAISKTSSTTVTLQMTSLTAADTATYFCARDDGSTSYYLNLWGPGTLVTVSS VL: YDMTQTPASVSAAVGGTVTIKCQASEDIYSLLAWYQQKPGQPPKLLIFDASDLASGVPSRFKGSGSGTEYTLTISDLECDDAATYYCQQAYTIGNIDNAFGGGTEVVVK .
Reply: 391000

Ask: Need kon, item 65D5 (antibody, V domains shown, Rabbit-derived clone; LEM construct: VH + rabbit IgG CH1 + human IgG1 CH2-CH3) VH: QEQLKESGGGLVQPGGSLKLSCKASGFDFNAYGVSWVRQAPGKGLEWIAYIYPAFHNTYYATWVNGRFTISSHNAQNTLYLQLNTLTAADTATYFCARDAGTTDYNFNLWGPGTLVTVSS VL: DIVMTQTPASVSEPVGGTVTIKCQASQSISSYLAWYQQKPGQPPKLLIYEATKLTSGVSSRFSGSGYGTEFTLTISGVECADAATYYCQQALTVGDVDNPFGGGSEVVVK
Reply: 706000
